Where these numbers come from: the supplement of paper PMC9112550

Test system: Escherichia coli TOP10
Protocol Notes: shrunken log2 fold change of peptide-encoding DNA abundance (4.5 h post-induction vs induction); higher = less antimicrobial activity (less host growth inhibition)
Measurement Parameters: time post-induction: 4.5 h; library: site-saturation at positions 5, 18, 19, 20
# shrunken log2 fold change per entry
# print the numeric value only

Some sequences with known shrunken log2 fold change results, for comparison:
RRIRGRPPRLPRPRPRPVTWPRP; 0.425
RRIRNRPPRLPRPRPRPDIHPRP; -0.0173
RRIRIRPPRLPRPRPRPGHDPRP; 0.144

// below: shrunken log2 fold change requested for another sequence
Recall the recorded shrunken log2 fold change for RRIRFRPPRLPRPRPRPDHFPRP with Escherichia coli TOP10 and state it.
-0.331

---

System: Escherichia coli TOP10
Protocol Notes: shrunken log2 fold change of peptide-encoding DNA abundance (4.5 h post-induction vs induction); higher = less antimicrobial activity (less host growth inhibition)
Measurement Parameters: time post-induction: 4.5 h; library: site-saturation at positions 5, 18, 19, 20
Observed Property: shrunken log2 fold change
Answer with a bare number; do not write a unit.

Answered cases to consult:
RRIRNRPPRLPRPRPRPACFPRP; 0.0188
RRIRLRPPRLPRPRPRPMSIPRP; -0.159

For the sequence shown here, RRIRSRPPRLPRPRPRPWGAPRP , give the reported shrunken log2 fold change.
0.0522

Can you look up the measured shrunken log2 fold change of RRIRYRPPRLPRPRPRPGPAPRP for me?
0.0198

Entry RRIRERPPRLPRPRPRPCYNPRP has what shrunken log2 fold change?
-0.137

Given the sequence RRIRLRPPRLPRPRPRPYAIPRP , what is its reported shrunken log2 fold change?
-0.233

Could you tell me which shrunken log2 fold change is on file for RRIRDRPPRLPRPRPRPACMPRP ?
0.242

May I ask what shrunken log2 fold change has been recorded for RRIRPRPPRLPRPRPRPFLTPRP ?
-0.254

shrunken log2 fold change for RRIRDRPPRLPRPRPRPKQYPRP ?
-0.839

---

System: Escherichia coli TOP10;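 further: peptides expressed intracellularly from a pBAD plasmid library in pooled LB shake-flask culture, induced with 0.3% L-arabinose, DNA abundance read by NGS, three biological replicates, DESeq2 with apeglm shrinkage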
Protocol Notes: shrunken log2 fold change of peptide-encoding DNA abundance (4.5 h post-induction vs induction); higher = less antimicrobial activity (less host growth inhibition)
Measurement Parameters: time post-induction: 4.5 h; library: site-saturation at positions 5, 18, 19, 20
Observed Property: shrunken log2 fold change
Number only, please.

RRIRPRPPRLPRPRPRPSPSPRP; 0.132
RRIRARPPRLPRPRPRPGHNPRP; -0.0862
RRIRHRPPRLPRPRPRPGKEPRP; -0.0977
RRIRRRPPRLPRPRPRPQHCPRP; -0.0448
RRIRDRPPRLPRPRPRPKQLPRP; 0.217

What value of shrunken log2 fold change has been reported for the following sequence? RRIRDRPPRLPRPRPRPTICPRP
-0.232

May I ask what shrunken log2 fold change has been recorded for RRIRERPPRLPRPRPRPFCQPRP ?
-0.528

# input sequence: RRIRQRPPRLPRPRPRPCDMPRP ; wanted: its shrunken log2 fold change
-0.129

For the sequence RRIRDRPPRLPRPRPRPSFAPRP , what shrunken log2 fold change is on record?
0.263

Consider the sequence shown here: RRIRWRPPRLPRPRPRPFRTPRP What is its recorded shrunken log2 fold change?
-0.16

Fill blank: measured shrunken log2 fold change of the sequence RRIRIRPPRLPRPRPRPSEHPRP is ____.
-0.36

# shrunken log2 fold change lookup, item RRIRYRPPRLPRPRPRPMPNPRP
-0.0961

I have this sequence here, RRIRDRPPRLPRPRPRPLQHPRP , and I need its recorded shrunken log2 fold change.
0.0148

State the recorded shrunken log2 fold change for this entry: RRIRFRPPRLPRPRPRPRLMPRP
-0.0982

What value of measured shrunken log2 fold change is listed for RRIRKRPPRLPRPRPRPPGAPRP ?
1.3

Item under review: RRIRERPPRLPRPRPRPCGHPRP . Reported shrunken log2 fold change?
0.0222

Consider the sequence RRIRHRPPRLPRPRPRPSLRPRP and give its measured shrunken log2 fold change.
-0.244

Fill in: shrunken log2 fold change of RRIRRRPPRLPRPRPRPFFYPRP is ___
0.0607

Given the sequence RRIRWRPPRLPRPRPRPSIAPRP , what is its reported shrunken log2 fold change?
0.0837
